# assay comment: in vivo
# Set-up: species or system mice
# measurement conditions: male, NOD.Cg-Rag1tm1Mom Il2rgtm1Wjl/SzJ (NRG), mouse, iv, total radioactivity, Ratio Tumor-to-Blood
Where a SMILES comes first, the peptide text is derived from it. Bridges are numbered along the chain shown (N, C = ends). [ ]: non-standard residue; d: D form. The star is where a group is joined. X3 = O=C(O)CN1CCN(CC(=O)O)CCN(CC(=O)N[C@@H](CS(=O)(=O)O)C(=O)N[C@@H](CCCCNC(=O)CCCc2ccc(Br)cc2)C(=O)*)CCN(CC(=O)O)CC1; 2Nal = N[C@@H](Cc1ccc2ccccc2c1)C(=O)O; Lys(iPr) = CC(C)NCCCC[C@H](N)C(=O)O

compound	tissue to tissue ratio at 1 h
CC(C)NCCCC[C@H](NC(=O)[C@H]1CCC(=O)N[C@@H](CCCCNC(=O)[C@H](CCCCNC(=O)CCCc2ccc(Br)cc2)NC(=O)[C@H](CS(=O)(=O)O)NC(=O)CN2CCN(CC(=O)O)CCN(CC(=O)O)CCN(CC(=O)O)CC2)C(=O)N[C@@H](Cc2ccc(O)cc2)C(=O)N[C@@H](CCCCNC(C)C)C(=O)N[C@H](CCCNC(=N)N)C(=O)N[C@@H](Cc2ccc3ccccc3c2)C(=O)N[C@H](C)C(=O)N1)C(N)=O [[^177Lu]Lu-BL34L20, metal not drawn] (K(X3)Y[Lys(iPr)][dR][2Nal][dA][dE][Lys(iPr)]-NH2; lactam N-7)	0.42
